- Target Or Test System: human Gal-1 (hGal-1)
- Sequence (P09382 2-135 limits assumed): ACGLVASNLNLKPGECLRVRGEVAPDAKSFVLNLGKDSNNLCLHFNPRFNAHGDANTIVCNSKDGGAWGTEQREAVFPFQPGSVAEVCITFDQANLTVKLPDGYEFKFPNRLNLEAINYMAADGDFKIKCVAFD
- Protocol Description: Competitive binding assay: binding of biotinylated hGal-1 to microplate-adsorbed asialofetuin (ASF)
- Test Settings: Activities on hGal-1; mean values of several measurements
- Procedure: Evaluation of Compound Inhibitory Activity (IC50) The inhibitory activity of compounds is determined in competitive binding assays. This spectrophotometric assay measures the binding of biotinylated human Gal-3 (hGal-3) or human Gal-1 (hGal-1), respectively, to a microplate-adsorbed glycoprotein, asialofetuin (ASF) (Proc Natl Acad Sci USA. 2013 Mar. 26; 110(13):5052-7.). […] The calculated IC50 values may fluctuate depending on the daily assay performance. […]
Measured Quantity: pIC50
Numbers only, as −log10 of the molar value.

Quick request: pIC50 for each listed item, please.
1. CO[C@@H]1[C@@H](n2cc(-c3ccc(F)c(F)c3F)nn2)[C@@H](O)[C@@H](CO)O[C@@H]1Cc1cc(C2(C)COC2)no1 [Ex 1.252]
2. CO[C@@H]1[C@@H](n2cc(-c3ccc(F)c(F)c3F)nn2)[C@@H](O)[C@@H](CO)O[C@@H]1Cc1cc(C2CCN(C(C)=O)CC2)on1 [Ex 1.166]

Response:
1. 6.55
2. 6.59

###

- Target Or Test System: human Gal-3 (hGal-3) (Homo sapiens (Human), UniProt P17931)
- Sequence (P17931 whole entry): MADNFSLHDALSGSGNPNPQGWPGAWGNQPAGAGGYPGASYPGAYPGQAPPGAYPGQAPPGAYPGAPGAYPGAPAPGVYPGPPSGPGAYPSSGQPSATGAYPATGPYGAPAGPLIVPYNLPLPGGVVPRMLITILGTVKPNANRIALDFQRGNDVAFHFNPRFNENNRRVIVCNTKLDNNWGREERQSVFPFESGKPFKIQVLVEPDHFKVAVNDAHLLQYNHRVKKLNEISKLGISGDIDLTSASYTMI
pIC50: −log10 of the molar value.
Label class 1 when pIC50 >= 7; otherwise class 0.

{"Molecule": "CO[C@@H]1[C@@H](n2cc(-c3cc(F)c(Cl)c(F)c3)nn2)[C@@H](O)[C@@H](CO)O[C@@H]1CC1CC(C2CCN(C(=O)OC(C)(C)C)CC2)=NO1 (stereo partly drawn)", "Answer Label": "class 0"}
{"Molecule": "CO[C@@H]1[C@@H](n2cc(-c3cc(F)c(Cl)c(F)c3)nn2)[C@@H](O)[C@@H](CO)O[C@@H]1CC1CC(C2CCNCC2)=NO1 (stereo partly drawn)", "Answer Label": "class 0"}

Query: Form field: pIC50 at least 7? Entry: CO[C@@H]1[C@@H](n2cc(-c3cc(F)c(F)c(F)c3)nn2)[C@@H](O)[C@@H](CO)O[C@@H]1Cc1cn(C2CCN([S+]([O-])C(C)(C)C)CC2)nn1 (stereo partly drawn)
Response: class 1

###

- Target Or Test System: human Gal-1 (hGal-1)
- Protocol Description: Competitive binding assay: binding of biotinylated hGal-1 to microplate-adsorbed asialofetuin (ASF)
- Test Settings: Activities on hGal-1; mean values of several measurements
For each entry below, report its log10 of IC50 value.
All values: log10 IC50 [nM].

Completed entries (count: 8):
{"Molecule": "CO[C@@H]1[C@@H](n2cc(-c3cc(F)c(F)c(F)c3)nn2)[C@@H](O)[C@@H](CO)O[C@@H]1Cn1cc(-c2ccc3[nH]c(=O)oc3c2)nn1", "log10 of IC50": 4.31}
{"Molecule": "CCNC(=O)N1CCC(c2cc(C[C@H]3O[C@H](CO)[C@H](O)[C@H](n4cc(-c5cc(F)c(F)c(F)c5)nn4)[C@H]3OC)no2)CC1", "log10 of IC50": 3.04}
{"Molecule": "CO[C@@H]1[C@@H](n2cc(-c3cc(F)c(F)c(F)c3)nn2)[C@@H](O)[C@@H](CO)O[C@@H]1Cc1cc(C2CCN(S(=N)(=O)C(C)(C)C)CC2)on1 (mixture of isomers)", "log10 of IC50": 2.79}
{"Molecule": "CCOC(=O)C1CCC(O)(c2cc(C[C@H]3O[C@H](CO)[C@H](O)[C@H](n4cc(-c5cc(F)c(F)c(F)c5)nn4)[C@H]3O)no2)CC1 (some centres unmarked)", "log10 of IC50": 3.98}
{"Molecule": "COc1ccc(-c2cc(C[C@H]3O[C@H](CO)[C@H](O)[C@H](n4cc(-c5cc(F)c(F)c(F)c5)nn4)[C@H]3O)on2)cc1", "log10 of IC50": 3.92}
{"Molecule": "CO[C@@H]1[C@@H](n2cc(-c3ccc(C)c(F)c3F)nn2)[C@@H](O)[C@@H](CO)O[C@@H]1Cc1cc(C(C)(C)CN)no1", "log10 of IC50": 3.27}
{"Molecule": "Cc1ccc(-c2cn([C@H]3[C@@H](O)[C@@H](CO)O[C@H](Cc4cc(C(C)(C)C)no4)[C@@H]3OCc3cnco3)nn2)c(F)c1F", "log10 of IC50": 3.43}
{"Molecule": "CO[C@@H]1[C@@H](n2cc(-c3cc(F)c(F)c(F)c3)nn2)[C@@H](O)[C@@H](CO)O[C@@H]1CC1CN(C2CCN(S(=O)(=O)CC(C)C)CC2)C(=O)O1 (mixture of isomers)", "log10 of IC50": 2.81}

Proceeding to the next molecule to report its log10 of IC50.
Query: Fill in: log10 of IC50 of "CO[C@@H]1[C@@H](n2cc(-c3cc(F)c(F)c(F)c3)nn2)[C@@H](O)[C@@H](CO)O[C@@H]1Cc1cn(C2CCN(C(C)=O)CC2)nn1" is ___
Response: 2.20

###

- Target Or Test System: human Gal-1 (hGal-1)
- Protocol Description: Competitive binding assay: binding of biotinylated hGal-1 to microplate-adsorbed asialofetuin (ASF)
- Test Settings: Activities on hGal-1; mean values of several measurements
Measured Quantity: IC50 (µM)
One number for each entry, in µM.

Quick request: IC50 for each listed item, please.
1. CO[C@@H]1[C@@H](n2cc(-c3ccc(C)c(F)c3F)nn2)[C@@H](O)[C@@H](CO)O[C@@H]1Cc1cc(C2CCCCC2)on1 [Ex 1.177]
2. CO[C@@H]1[C@@H](n2cc(-c3ccc(Cl)c(F)c3F)nn2)[C@@H](O)[C@@H](CO)O[C@@H]1Cc1cc(C2CCCCC2)on1 [Ex 1.172]
3. CO[C@@H]1[C@@H](n2cc(-c3cc(F)c(F)c(F)c3)nn2)[C@@H](O)[C@@H](CO)O[C@@H]1Cc1cc(C2CCC(=O)NC2)no1 (stereo partly drawn) [Ex 1.114]
4. CO[C@@H]1[C@@H](n2cc(-c3ccc(C)c(F)c3)nn2)[C@@H](O)[C@@H](CO)O[C@@H]1Cc1cc(C2CCN(S(C)(=O)=O)CC2)on1 [Ex 1.153]
5. CO[C@@H]1[C@@H](n2cc(-c3cc(F)c(F)c(F)c3)nn2)[C@@H](O)[C@@H](CO)O[C@@H]1CN1CC(=O)N(C2CCOCC2)C1 [Example 6.10]
6. CO[C@@H]1[C@@H](n2cc(-c3cc(F)c(F)c(F)c3)nn2)[C@@H](O)[C@@H](CO)O[C@@H]1Cc1cn(C2CC[S+]([O-])CC2)nn1 (stereo partly drawn) [Example 4.15]

Response:
1: 64.8; 2: 57; 3: 1.36; 4: 1.6; 5: 0.89; 6: 4.9

###

- Target Or Test System: human Gal-3 (hGal-3) (Homo sapiens (Human), UniProt P17931)
Criterion: IC50 strictly under 100 nM. Met: Criterion met. Not met: Criterion not met.

Example results:
{"Molecule": "CO[C@@H]1[C@@H](n2cc(-c3cc(F)c(F)c(F)c3)nn2)[C@@H](O)[C@@H](CO)O[C@@H]1CC1CC(c2cc[nH]c(=O)c2)=NO1 (mixture of isomers) [Example 2.06]", "Answer Label": "Criterion not met"}
{"Molecule": "CC(C)(C)c1cc(C[C@H]2O[C@H](CO)[C@H](O)[C@H](n3cc(-c4cc(F)c(F)c(F)c4)nn3)[C@H]2OCC(=O)N2CCOCC2)no1 [Example 2.28]", "Answer Label": "Criterion not met"}
{"Molecule": "CO[C@@H]1[C@@H](n2cc(-c3cc(F)cc(F)c3)nn2)[C@@H](O)[C@@H](CO)O[C@@H]1CC1CC(C2CCN(C(=O)OC(C)(C)C)CC2)=NO1 (some centres unmarked) [Ex 1.118]", "Answer Label": "Criterion not met"}
{"Molecule": "CC(C)(C)OC(=O)N1CCC(O)(c2cc(C[C@H]3O[C@H](CO)[C@H](O)[C@H](n4cc(-c5cc(F)c(F)c(F)c5)nn4)[C@H]3O)no2)CC1 [Ex 1.61]", "Answer Label": "Criterion met"}
{"Molecule": "CO[C@@H]1[C@@H](n2cc(-c3cc(F)c(F)c(F)c3)nn2)[C@@H](O)[C@@H](CO)O[C@@H]1CC1CC(C(C)(C)CO)=NO1 (some centres unmarked) [Ex 1.281]", "Answer Label": "Criterion not met"}
{"Molecule": "CO[C@@H]1[C@@H](n2cc(-c3cc(F)c(F)c(F)c3)nn2)[C@@H](O)[C@@H](CO)O[C@@H]1C[C@H]1CC([C@@H]2CCNC(=O)C2)=NO1 [Ex 1.91]", "Answer Label": "Criterion not met"}
{"Molecule": "CO[C@@H]1[C@@H](n2cc(-c3cc(F)c(F)c(F)c3)nn2)[C@@H](O)[C@@H](CO)O[C@@H]1CN1CC(=O)N(C2CCOCC2)C1 [Example 6.10]", "Answer Label": "Criterion met"}
{"Molecule": "CO[C@@H]1[C@@H](n2cc(-c3ccc(Cl)c(F)c3)nn2)[C@@H](O)[C@@H](CO)O[C@@H]1Cc1cc(C2CCN(C(=O)OC(C)(C)C)CC2)no1 [Ex 1.124]", "Answer Label": "Criterion met"}
{"Molecule": "OC[C@H]1O[C@H](CC2CC(c3cc(Cl)ccc3Cl)=NO2)[C@H](O)[C@@H](n2cc(-c3cc(F)c(F)c(F)c3)nn2)[C@H]1O (some centres unmarked) [Ex 1.295]", "Answer Label": "Criterion not met"}
{"Molecule": "CO[C@@H]1[C@@H](n2cc(-c3cc(F)c(F)c(F)c3)nn2)[C@@H](O)[C@@H](CO)O[C@@H]1CN1CN(C2CCN(C(C)=O)CC2)CC1=O [Example 6.07]", "Answer Label": "Criterion not met"}

Query: Say whether its IC50 is strictly beneath 100 nM. Entry: CC(C)(O)C1CC(C[C@H]2O[C@H](CO)[C@H](O)[C@H](n3cc(-c4cc(F)c(F)c(F)c4)nn3)[C@H]2O)=NO1 (some centres unmarked) [Ex 1.39]
Response: Criterion not met

Query: Say whether its IC50 is strictly beneath 100 nM. Entry: CC(C)(C)c1cc(C[C@H]2O[C@H](CO)[C@H](O)[C@H](n3cc(-c4ccc(F)c(F)c4F)nn3)[C@H]2O)on1 [Example 2.49]
Response: Criterion met

Query: Say whether its IC50 is strictly beneath 100 nM. Entry: CO[C@@H]1[C@@H](n2cc(-c3ccc(C)c(F)c3F)nn2)[C@@H](O)[C@@H](CO)O[C@@H]1Cc1cc(C(C)(C)CN)no1 [Ex 1.336]
Response: Criterion met

Query: Say whether its IC50 is strictly beneath 100 nM. Entry: CO[C@@H]1[C@@H](n2cc(-c3cc(F)c(F)c(F)c3)nn2)[C@@H](O)[C@@H](CO)O[C@@H]1C[C@H]1CC([C@@H]2CCN(C)C(=O)C2)=NO1 [Ex 1.89]
Response: Criterion not met

Query: Say whether its IC50 is strictly beneath 100 nM. Entry: CC(C)(C)OC(=O)N1CC(c2cc(C[C@H]3O[C@H](CO)[C@H](O)[C@H](n4cc(-c5cc(F)c(F)c(F)c5)nn4)[C@H]3O)no2)C1 [Ex 1.53]
Response: Criterion not met
